- targetEntity: RAC-alpha serine/threonine-protein kinase (Homo sapiens)
- Sequence (P31749 whole entry): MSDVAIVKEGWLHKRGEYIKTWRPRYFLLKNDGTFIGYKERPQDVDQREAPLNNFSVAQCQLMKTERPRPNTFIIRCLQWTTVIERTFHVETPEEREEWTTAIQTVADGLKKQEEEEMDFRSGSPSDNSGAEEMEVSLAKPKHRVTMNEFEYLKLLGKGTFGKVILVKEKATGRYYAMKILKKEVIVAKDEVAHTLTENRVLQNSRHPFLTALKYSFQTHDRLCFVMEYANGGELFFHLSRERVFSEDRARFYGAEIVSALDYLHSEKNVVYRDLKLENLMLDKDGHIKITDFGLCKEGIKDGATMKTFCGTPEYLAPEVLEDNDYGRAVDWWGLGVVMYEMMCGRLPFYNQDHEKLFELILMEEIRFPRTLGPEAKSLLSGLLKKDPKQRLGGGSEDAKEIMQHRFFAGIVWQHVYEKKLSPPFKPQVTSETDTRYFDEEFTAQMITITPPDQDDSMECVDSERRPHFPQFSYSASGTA
pIC50: −log10 of the molar value.
resultType: pIC50

The reported value for O=c1c(-c2ccc(O)cc2)coc2cc(O)cc(O)c12 in terms of pIC50 is < 4.15
